Reference source for all entries: BigSolDB 2.1

Details: in toluene, 338.15 K
readout kind: solubility (mole fraction)
Simply state the number, no unit and no words.

Entry O=[N+]([O-])c1cn[nH]c1[N+](=O)[O-] , solubility (mole fraction) reported as 0.00877

----------
Settings: in toluene, 298.15 K
readout kind: solubility (mole fraction)

Entry O=[N+]([O-])c1cn[nH]c1[N+](=O)[O-] , solubility (mole fraction) reported as 0.00201

----------
Details: in isopropanol, 308.15 K
readout kind: solubility (mole fraction)
Simply state the number, no unit and no words.

Entry O=[N+]([O-])c1cn[nH]c1[N+](=O)[O-] , solubility (mole fraction) reported as 0.441

----------
Settings: in isopropanol, 328.15 K
readout kind: solubility (mole fraction)
Simply state the number, no unit and no words.

Entry O=[N+]([O-])c1cn[nH]c1[N+](=O)[O-] , solubility (mole fraction) reported as 0.588

----------
Conditions: in n-butanol, 318.15 K
readout kind: solubility (mole fraction)

Entry O=[N+]([O-])c1cn[nH]c1[N+](=O)[O-] , solubility (mole fraction) reported as 0.444

----------
Details: in chlorobenzene, 303.15 K
readout kind: solubility (mole fraction)
Simply state the number, no unit and no words.

Entry O=[N+]([O-])c1cn[nH]c1[N+](=O)[O-] , solubility (mole fraction) reported as 0.00147

----------
Conditions: in n-butanol, 308.15 K
readout kind: solubility (mole fraction)

Entry O=[N+]([O-])c1cn[nH]c1[N+](=O)[O-] , solubility (mole fraction) reported as 0.387

----------
Settings: in benzene, 328.15 K
readout kind: solubility (mole fraction)
Simply state the number, no unit and no words.

Entry O=[N+]([O-])c1cn[nH]c1[N+](=O)[O-] , solubility (mole fraction) reported as 0.00585

----------
Conditions: in isopropanol, 298.15 K
readout kind: solubility (mole fraction)
Simply state the number, no unit and no words.

Entry O=[N+]([O-])c1cn[nH]c1[N+](=O)[O-] , solubility (mole fraction) reported as 0.388

----------
Details: in toluene, 308.15 K
readout kind: solubility (mole fraction)
Simply state the number, no unit and no words.

Entry O=[N+]([O-])c1cn[nH]c1[N+](=O)[O-] , solubility (mole fraction) reported as 0.00291

----------
Conditions: in benzene, 298.15 K
readout kind: solubility (mole fraction)
Simply state the number, no unit and no words.

Entry O=[N+]([O-])c1cn[nH]c1[N+](=O)[O-] , solubility (mole fraction) reported as 0.00171

----------
Conditions: in isopropanol, 338.15 K
readout kind: solubility (mole fraction)
Simply state the number, no unit and no words.

Entry O=[N+]([O-])c1cn[nH]c1[N+](=O)[O-] , solubility (mole fraction) reported as 0.7

----------
Conditions: in benzene, 303.15 K
readout kind: solubility (mole fraction)
Simply state the number, no unit and no words.

Entry O=[N+]([O-])c1cn[nH]c1[N+](=O)[O-] , solubility (mole fraction) reported as 0.00211

----------
Conditions: in chlorobenzene, 313.15 K
readout kind: solubility (mole fraction)
Simply state the number, no unit and no words.

Entry O=[N+]([O-])c1cn[nH]c1[N+](=O)[O-] , solubility (mole fraction) reported as 0.00218

----------
Conditions: in chlorobenzene, 338.15 K
readout kind: solubility (mole fraction)
Simply state the number, no unit and no words.

Entry O=[N+]([O-])c1cn[nH]c1[N+](=O)[O-] , solubility (mole fraction) reported as 0.00609
